Data provenance: patent US20250368742A1

Target: T1, MICB005-ECD-HISAvi (human, UniProt Q29980 24-309)
T1 construct: Two sources under one name in the two kinetic assays; also called MICB005 polypeptide
T1 sequence: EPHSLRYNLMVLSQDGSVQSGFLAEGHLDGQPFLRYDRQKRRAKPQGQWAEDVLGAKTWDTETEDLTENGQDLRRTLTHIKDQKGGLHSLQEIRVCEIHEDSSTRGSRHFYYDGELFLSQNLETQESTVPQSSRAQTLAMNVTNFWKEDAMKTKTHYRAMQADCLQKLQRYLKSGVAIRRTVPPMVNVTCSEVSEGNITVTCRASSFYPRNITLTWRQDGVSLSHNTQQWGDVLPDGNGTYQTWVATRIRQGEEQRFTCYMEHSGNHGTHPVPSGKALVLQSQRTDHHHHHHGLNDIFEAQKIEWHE
Test: SPR (Carterra); antibody captured by anti-human Fc, monomeric ECD antigen injected;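 further: dissociation phase followed for about 10 min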
ASSAY READOUT: Kd (nM)

- BINDER: "#31 (antibody, human IgG1, V domains shown, also called PL116D11; Hit ID 31) VH: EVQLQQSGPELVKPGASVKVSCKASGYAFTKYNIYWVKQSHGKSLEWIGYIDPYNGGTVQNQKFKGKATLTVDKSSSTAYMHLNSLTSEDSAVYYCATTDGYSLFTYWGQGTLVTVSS VL: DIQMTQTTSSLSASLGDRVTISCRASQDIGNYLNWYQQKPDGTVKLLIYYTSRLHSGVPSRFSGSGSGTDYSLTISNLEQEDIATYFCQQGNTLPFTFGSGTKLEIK"
  READOUT VALUE: 15
- BINDER: "#36 (antibody, human IgG1, V domains shown, also called PL116H11; Hit ID 36) VH: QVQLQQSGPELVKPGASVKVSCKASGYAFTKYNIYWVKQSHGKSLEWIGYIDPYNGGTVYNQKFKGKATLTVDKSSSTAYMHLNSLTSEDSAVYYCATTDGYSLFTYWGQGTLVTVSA VL: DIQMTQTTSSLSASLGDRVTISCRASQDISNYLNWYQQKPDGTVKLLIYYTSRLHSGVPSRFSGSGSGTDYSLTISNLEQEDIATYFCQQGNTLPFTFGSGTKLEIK"
  READOUT VALUE: 23.1
- BINDER: "B10G5 (antibody, human IgG1, kappa, V domains shown, also called B10G5-2; P2B10G5) VH: EVQLEESGPGLVKPSQSLSLTCTVTGYSITSDYAWNWIRQFPGNKLEWMGYISYSGSTNYNPSLKSRISITRDTSKNQFFLQLNSVITEDTATYYCARGGTYFDYWGQGTTLTVSS VL: DIVLTQTTSYLSVSLGGRVTIACKASAHINNWLAWYQQKPGNAPRLLISDATSLETGVPSRFSGSGSGKDYTLSITSLQTEDVATYYCQHYWSTPWTFGGGTKLEIKR"
  READOUT VALUE: 2.27
- BINDER: "#38 (antibody, human IgG1, V domains shown, also called PL114H02; Hit ID 38) VH: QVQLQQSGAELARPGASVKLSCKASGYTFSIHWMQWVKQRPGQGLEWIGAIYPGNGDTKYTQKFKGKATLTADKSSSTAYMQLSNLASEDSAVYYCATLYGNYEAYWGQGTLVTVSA VL: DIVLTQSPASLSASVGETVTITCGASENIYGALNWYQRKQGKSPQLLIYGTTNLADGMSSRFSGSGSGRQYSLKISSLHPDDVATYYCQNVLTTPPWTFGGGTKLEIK"
  READOUT VALUE: 1.78
